Data provenance: the supplement of paper PMC7877785

# Protocol Summary: self-splicing fitness, log relative to wild type (ln ratio); higher = more splicing; Tetrahymena group I intron in knt gene, E. coli kanamycin selection, DiMSum; sequences stand for … in CUCUCU…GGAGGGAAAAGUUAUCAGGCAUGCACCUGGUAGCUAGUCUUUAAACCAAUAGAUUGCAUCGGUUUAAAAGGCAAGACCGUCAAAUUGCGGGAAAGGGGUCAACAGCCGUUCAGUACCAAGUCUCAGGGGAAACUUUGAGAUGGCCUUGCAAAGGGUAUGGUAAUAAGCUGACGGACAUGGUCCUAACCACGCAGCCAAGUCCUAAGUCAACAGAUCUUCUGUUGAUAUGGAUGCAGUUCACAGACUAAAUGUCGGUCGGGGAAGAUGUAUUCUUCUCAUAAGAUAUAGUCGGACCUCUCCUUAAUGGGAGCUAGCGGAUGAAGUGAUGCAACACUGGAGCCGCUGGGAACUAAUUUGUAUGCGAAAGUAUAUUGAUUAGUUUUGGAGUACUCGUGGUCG;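 further: selection with 25 µg/mL kanamycin versus none on LB agar overnight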
# Test Settings: 37 °C
Recorded Endpoint: self-splicing fitness (ln)
Number only, no unit.

INSERT INTO results (seq_string, recorded_endpoint, val) VALUES
  ('GAAGAGCAAUAUUACGAUUC', 'self-splicing fitness (ln)', -2.45);

Challenge: # lookup: self-splicing fitness (ln) of GAUAAGCAAUAUUACGACAA
Response given: -0.276

Challenge: Item under review: GCAUAGCAAUAUUACGAUGA . Reported self-splicing fitness (ln)?
Response given: 0.0691

Challenge: Give its self-splicing fitness (ln) value. Item: CGGAAGCAAUAUUACGCACG
Response given: 0.981

###

# Protocol Summary: self-splicing fitness, log relative to wild type (ln ratio); higher = more splicing; Tetrahymena group I intron in knt gene, E. coli kanamycin selection, DiMSum; sequences stand for … in CUCUCU…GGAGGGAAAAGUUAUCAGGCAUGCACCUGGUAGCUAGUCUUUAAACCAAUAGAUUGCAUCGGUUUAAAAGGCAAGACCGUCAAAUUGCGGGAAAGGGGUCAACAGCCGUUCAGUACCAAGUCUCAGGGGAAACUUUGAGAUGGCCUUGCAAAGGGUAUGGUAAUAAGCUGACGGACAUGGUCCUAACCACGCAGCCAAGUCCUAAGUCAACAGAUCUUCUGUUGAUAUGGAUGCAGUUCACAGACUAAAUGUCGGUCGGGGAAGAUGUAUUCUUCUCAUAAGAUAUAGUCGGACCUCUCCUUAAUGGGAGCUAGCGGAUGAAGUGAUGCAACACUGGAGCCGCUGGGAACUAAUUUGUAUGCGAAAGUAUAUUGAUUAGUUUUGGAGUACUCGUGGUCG
# Test Settings: 37 °C
Recorded Endpoint: self-splicing fitness (ln)
Form: value (number only, do not type unit).

The cases that follow already have their self-splicing fitness (ln) on record.
INSERT INTO assay_data (seq_string, val) VALUES
  ('UGGUAGCAAUAUUACGCUCG', 0.532),
  ('GCGGAGCAAUAUUACGGCGU', -2.08),
  ('CUCCAGCAAUAUUACGAAGA', -3.41),
  ('CUGAAGCAAUAUUACGAAAU', -2.38);

Challenge: Record request: self-splicing fitness (ln) value, item ACGAAGCAAUAUUACGCUUA
Response given: -0.374

Challenge: Param item = CAAGAGCAAUAUUACGAAGU ; retrieve measured self-splicing fitness (ln).
Response given: -2.3

Challenge: Quick one: self-splicing fitness (ln) of UCCUAGCAAUAUUACGCGAG ?
Response given: -3.22

Challenge: Which self-splicing fitness (ln) value is on record for AUACAGCAAUAUUACGGUUU ?
Response given: 0.226
